# tested.system: androgen receptor (Rattus norvegicus, UniProt P15207)
# Sequence (P15207 1-902): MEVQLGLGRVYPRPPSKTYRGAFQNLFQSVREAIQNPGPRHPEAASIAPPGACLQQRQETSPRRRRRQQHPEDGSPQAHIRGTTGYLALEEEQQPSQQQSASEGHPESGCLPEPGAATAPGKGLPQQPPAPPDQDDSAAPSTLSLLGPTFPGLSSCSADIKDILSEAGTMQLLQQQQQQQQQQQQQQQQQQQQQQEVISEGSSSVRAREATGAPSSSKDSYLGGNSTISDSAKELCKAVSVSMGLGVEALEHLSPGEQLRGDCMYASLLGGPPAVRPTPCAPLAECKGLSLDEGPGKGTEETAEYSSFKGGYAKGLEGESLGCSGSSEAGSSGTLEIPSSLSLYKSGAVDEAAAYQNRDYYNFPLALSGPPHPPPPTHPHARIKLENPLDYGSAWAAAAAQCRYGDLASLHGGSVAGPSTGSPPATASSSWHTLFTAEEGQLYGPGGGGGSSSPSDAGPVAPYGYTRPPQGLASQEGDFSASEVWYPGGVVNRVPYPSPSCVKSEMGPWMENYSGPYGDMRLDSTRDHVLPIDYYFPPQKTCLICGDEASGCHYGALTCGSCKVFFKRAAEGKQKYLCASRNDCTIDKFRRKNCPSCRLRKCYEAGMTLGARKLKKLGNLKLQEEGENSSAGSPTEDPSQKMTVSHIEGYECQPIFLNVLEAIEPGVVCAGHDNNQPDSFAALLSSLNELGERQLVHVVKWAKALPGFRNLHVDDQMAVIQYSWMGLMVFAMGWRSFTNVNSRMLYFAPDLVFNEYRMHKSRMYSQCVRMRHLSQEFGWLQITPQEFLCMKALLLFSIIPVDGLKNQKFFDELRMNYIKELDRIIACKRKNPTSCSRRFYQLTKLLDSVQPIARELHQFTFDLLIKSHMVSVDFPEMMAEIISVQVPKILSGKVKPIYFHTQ
Reported IC50 values follow for various compounds
Your answer is read as µM, so omit the unit and give the number.

[[record]]
compound = "CCOC(=O)N(C(=O)C(C)(O)C(F)(F)F)c1ccc(C#N)c(C(F)(F)F)c1 (centres unmarked)"
tested_system = "androgen receptor (Rattus norvegicus, UniProt P15207)"
assay_value = 2


Now consider a different compound.
Value of measured IC50 for the entry CC(O)(C(=O)N(C(=O)O)c1ccc(C#N)c(C(F)(F)F)c1)C(F)(F)F (centres unmarked) : 4
